Reference source: PubChem BioAssay (NCI)

system: A549 NSCLC; experiment: NCI tumour cell line growth inhibition, 48 h
measurement-kind: GI50

compound	measurement-kind	endpoint-result
Cc1ccc(C2=C(c3ccc(C)cc3)C3(c4ccc(C)cc4)[C@@H](C#N)[C@H](C#N)C2(c2ccc(C)cc2)S3=O)cc1 (stereo partly drawn)	GI50	> 100 µM

Record `CN([O-])c1nc(N(C)[O-])nc(N2CCOCC2)n1.CN([O-])c1nc(N(C)[OH2+])nc(N2CCOCC2)n1.[Fe+3]` . Reported GI50: > 100 µM

get_value(item= `CCOC(=O)/C=C/C1=C(c2csc3ccccc23)c2ccccc2CC1` , readout=GI50) returns 31.1 µM
